The reported numbers originate from paper PMC2756588.

Biological target: Sho1, P40073
Sequence (P40073 287-367): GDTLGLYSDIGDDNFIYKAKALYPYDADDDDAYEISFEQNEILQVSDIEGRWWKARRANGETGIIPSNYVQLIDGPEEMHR
Test: SPOT array
Details: median of control spots 1148

BINDER | SPOT intensity
AIPPPVPNRPGGTTN | 0
RRSKSLPTTPGIRSG | 1350
ITHRLRISIPGITGR | 191
PPPPPPPPPPPLPQS | 0
QNTPPLPPKPKSPHL | 72
ISRRRLPVIMHRLKM | 112
LTRRFPFLFPFDTRM | 57
